IC50 reference
# measurement_target: DLK (Homo sapiens, UniProt Q12852)
# Construct: 10 nM DLK, catalytic domain, Carna Biosiences; purchased Carna Biosciences ('Carna Biosiences' [sic])
# Sequence (Q12852 125-366 limits assumed): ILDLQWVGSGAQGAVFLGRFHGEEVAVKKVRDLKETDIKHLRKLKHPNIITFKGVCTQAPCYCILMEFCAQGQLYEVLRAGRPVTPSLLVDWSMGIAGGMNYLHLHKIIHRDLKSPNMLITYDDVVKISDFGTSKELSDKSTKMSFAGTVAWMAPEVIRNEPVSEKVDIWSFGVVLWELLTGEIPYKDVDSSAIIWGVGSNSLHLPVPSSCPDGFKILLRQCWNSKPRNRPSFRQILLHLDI
# experimental_details: DLK biochemical assay (TR-FRET, MKK7 phosphorylation)
# condition_details: DLK catalytic domain, MKK7 substrate, 60 μM ATP
# Method: DLK assay is a biochemical assay format designed to screen for inhibitors of DLK. Enzymatic activity of DLK is measured by monitoring phosphorylation of the physiological substrate MKK7 (MAP2K7, Dual specificity mitogen-activated protein kinase kinase 7). Phosphorylation is detected by a TR-FRET system whereby His-tagged MKK7 is labeled by a XL665-labeled anti-His antibody (FRET acceptor, emission 665 nm). […]
Enter your answer as a number in nM; do not include the unit.

// known answers, use as guide
| molecule | measurement_target | measured_attribute | result_unit | reported_result |
| --- | --- | --- | --- | --- |
| CC(CF)NC(=O)c1cc(-c2cnn(CC3CC3)c2)cn2nc(N)nc12 (racemic) [Example I-137] | DLK (Homo sapiens, UniProt Q12852) | IC50 | nM | 140 |
| CC[C@H](C)NC(=O)c1cc(-c2cnn(C(c3ccc(C(F)(F)F)nc3)C3CCN(C(=O)OC(C)(C)C)CC3)c2)cn2nc(N)nc12 (mixture of isomers) [Example I-79] | DLK (Homo sapiens, UniProt Q12852) | IC50 | nM | 0.8 |
| CC[C@H](C)NC(=O)c1cc(-c2cnn(C(c3ccc(C(F)(F)F)nc3)C(C)C)c2)cn2nc(N)nc12 (single isomer, unassigned) [Example I-74] | DLK (Homo sapiens, UniProt Q12852) | IC50 | nM | 10 |
| CCC(c1ccc(OC(F)(F)F)nc1)n1cc(-c2cc(C(=O)NC(C)(C)CO)c3nc(N)nn3c2)cn1 (single isomer, unassigned) [Example I-171] | DLK (Homo sapiens, UniProt Q12852) | IC50 | nM | 85 |
| CC[C@H](C)NC(=O)c1cc(-c2cnn(C3CCCc4cccnc43)c2)cc2nc(N)nn12 (mixture of isomers) [Example I-22] | DLK (Homo sapiens, UniProt Q12852) | IC50 | nM | 27 |
| CC(C)(CO)NC(=O)c1cc(-c2cnn(C(c3ccc(C(F)(F)F)nc3)C3CCOCC3)c2)cn2nc(N)nc12 (single isomer, unassigned) [Example I-167] | DLK (Homo sapiens, UniProt Q12852) | IC50 | nM | 22 |

Challenge: Item under review: CC[C@@H](c1ccc(C(F)(F)F)nc1)n1cc(-c2cc(C(=O)NC(C)(C)CO)c3nc(N)nn3c2)cn1 (single isomer, unassigned) [Example I-164] . Reported IC50?
Response given: 6.3
